Hello, the source for this data is patent US20230312556A1, in case you need it.

pIC50 tested on wild-type BRAF enzyme (Homo sapiens (Human)): recorded values
Sequence (P15056 whole entry): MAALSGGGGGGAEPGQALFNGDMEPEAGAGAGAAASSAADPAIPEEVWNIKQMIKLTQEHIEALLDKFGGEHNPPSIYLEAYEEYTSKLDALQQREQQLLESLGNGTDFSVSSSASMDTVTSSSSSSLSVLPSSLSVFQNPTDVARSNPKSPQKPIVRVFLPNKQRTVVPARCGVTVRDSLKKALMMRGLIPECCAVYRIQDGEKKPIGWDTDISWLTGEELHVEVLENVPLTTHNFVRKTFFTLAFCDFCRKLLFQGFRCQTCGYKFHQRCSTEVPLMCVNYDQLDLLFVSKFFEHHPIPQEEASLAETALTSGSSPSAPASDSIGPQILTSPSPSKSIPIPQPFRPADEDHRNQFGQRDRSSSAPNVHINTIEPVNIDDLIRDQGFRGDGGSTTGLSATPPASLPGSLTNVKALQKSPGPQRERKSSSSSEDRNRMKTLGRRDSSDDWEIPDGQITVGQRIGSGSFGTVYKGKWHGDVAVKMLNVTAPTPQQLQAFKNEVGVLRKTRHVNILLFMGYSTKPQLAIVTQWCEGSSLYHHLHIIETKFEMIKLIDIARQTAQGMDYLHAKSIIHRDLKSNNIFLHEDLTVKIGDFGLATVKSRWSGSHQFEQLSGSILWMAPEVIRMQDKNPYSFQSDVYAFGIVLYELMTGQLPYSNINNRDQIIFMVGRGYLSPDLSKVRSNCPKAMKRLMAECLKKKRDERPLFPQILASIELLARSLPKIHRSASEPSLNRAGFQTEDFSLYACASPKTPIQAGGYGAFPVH
The scale used: pIC50 is minus the common logarithm of the concentration in molar units.

The value of pIC50 measured for the molecule `Nc1ncnc2c(C(=O)Nc3c(F)ccc4c(Nc5cccc(Cl)c5F)nccc34)cccc12` turned out to be 7.66

Recorded result, Cc1ccc2c(C(O)c3cccc(C(F)(F)F)c3)nccc2c1NC(=O)c1csc2c(N)ncnc12 (centres unmarked) , pIC50: 7.29

// recorded pIC50 for `Cc1ccc2c(Cc3cccc(C(F)(F)F)c3)nccc2c1NC(=O)c1csc2c(N)ncnc12` : 7.66

The reported pIC50 of the molecule `COc1ccc(Nc2nccc3c(NC(=O)c4cccc5c(N)ncnc45)c(C)ccc23)c(F)c1` was 8.07

Consider `Cc1ccc2c(Nc3ccc(Cl)cc3F)nccc2c1NC(=O)c1cccc2c(N)ncnc12` . Its measured pIC50 is 7.50
